Target: human vitronectin receptor (VnR) αvβ3 (Homo sapiens, UniProt P05106+P06756)
Construct: Human vitronectin receptor was obtained from the human placenta according to the method of Pytela et al
Sequence (P06756 31-889 limits assumed): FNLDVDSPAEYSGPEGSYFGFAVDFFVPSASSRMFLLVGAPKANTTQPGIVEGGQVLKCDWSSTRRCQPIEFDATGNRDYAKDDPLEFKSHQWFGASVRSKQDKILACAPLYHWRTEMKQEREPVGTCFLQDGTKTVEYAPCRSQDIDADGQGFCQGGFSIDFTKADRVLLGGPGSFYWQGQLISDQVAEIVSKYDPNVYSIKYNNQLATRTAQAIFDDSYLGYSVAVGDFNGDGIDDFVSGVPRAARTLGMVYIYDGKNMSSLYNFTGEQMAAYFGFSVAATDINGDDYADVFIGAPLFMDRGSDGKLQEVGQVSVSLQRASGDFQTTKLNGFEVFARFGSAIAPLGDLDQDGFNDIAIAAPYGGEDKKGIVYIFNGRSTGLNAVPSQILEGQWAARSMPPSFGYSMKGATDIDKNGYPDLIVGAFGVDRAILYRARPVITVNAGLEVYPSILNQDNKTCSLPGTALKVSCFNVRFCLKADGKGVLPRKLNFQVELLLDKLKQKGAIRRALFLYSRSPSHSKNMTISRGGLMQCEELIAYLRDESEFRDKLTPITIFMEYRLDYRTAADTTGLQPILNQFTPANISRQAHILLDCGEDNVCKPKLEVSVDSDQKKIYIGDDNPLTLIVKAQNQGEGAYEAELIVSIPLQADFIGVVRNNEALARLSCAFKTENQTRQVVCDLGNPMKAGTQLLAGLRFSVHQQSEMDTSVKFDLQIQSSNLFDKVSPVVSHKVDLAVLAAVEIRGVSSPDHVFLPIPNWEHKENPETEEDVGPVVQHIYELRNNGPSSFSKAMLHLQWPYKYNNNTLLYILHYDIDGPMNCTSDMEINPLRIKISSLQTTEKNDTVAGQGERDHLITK
Sequence (P06756 891-1048 partner limits assumed): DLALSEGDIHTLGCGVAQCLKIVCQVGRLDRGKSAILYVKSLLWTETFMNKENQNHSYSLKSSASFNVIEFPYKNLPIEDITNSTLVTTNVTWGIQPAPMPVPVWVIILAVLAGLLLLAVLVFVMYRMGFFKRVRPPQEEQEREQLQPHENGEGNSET
Sequence (P05106 27-788): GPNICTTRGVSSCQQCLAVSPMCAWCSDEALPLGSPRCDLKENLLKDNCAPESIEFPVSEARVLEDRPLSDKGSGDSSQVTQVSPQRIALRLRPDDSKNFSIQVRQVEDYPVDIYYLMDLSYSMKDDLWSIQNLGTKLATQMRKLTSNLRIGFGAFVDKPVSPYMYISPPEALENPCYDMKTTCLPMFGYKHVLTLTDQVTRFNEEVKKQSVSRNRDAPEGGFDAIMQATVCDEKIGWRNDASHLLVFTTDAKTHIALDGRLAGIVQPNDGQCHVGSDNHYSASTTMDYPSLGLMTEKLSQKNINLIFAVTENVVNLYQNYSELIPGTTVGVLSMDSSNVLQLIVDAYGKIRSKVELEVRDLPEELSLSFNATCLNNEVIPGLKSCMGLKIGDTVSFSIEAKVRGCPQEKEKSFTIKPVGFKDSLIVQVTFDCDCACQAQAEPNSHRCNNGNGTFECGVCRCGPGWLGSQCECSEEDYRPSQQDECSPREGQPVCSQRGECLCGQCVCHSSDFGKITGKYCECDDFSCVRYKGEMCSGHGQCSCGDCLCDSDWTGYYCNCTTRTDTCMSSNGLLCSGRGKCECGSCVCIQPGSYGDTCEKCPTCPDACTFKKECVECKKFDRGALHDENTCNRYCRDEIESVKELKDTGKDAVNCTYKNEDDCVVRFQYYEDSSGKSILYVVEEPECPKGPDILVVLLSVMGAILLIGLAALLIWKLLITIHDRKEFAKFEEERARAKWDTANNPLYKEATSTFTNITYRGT
Assay: Kistrin binding assay (αvβ3 ELISA test, K/VnR)
Details: inhibition of binding of kistrin to human vitronectin receptor
pIC50: −log10 of the molar value.
List of pIC50 values.

>  <Chemical String>
O=C(CCCCc1ccc(C[C@H](NS(=O)(=O)c2ccc(Cl)cc2)C(=O)O)s1)NC1=NCCCN1

>  <pIC50>
7.92

$$$$
>  <Chemical String>
O=C(CCC/C=C/c1ccc(C[C@H](NC(=O)OCc2ccccc2)C(=O)O)s1)NC1=NCCCN1

>  <pIC50>
7.40

$$$$
>  <Chemical String>
O=C(CCCCc1ccc(C[C@H](NC(=O)OCC23CC4CC(CC(C4)C2)C3)C(=O)O)s1)NC1=NCCCN1

>  <pIC50>
7.64

$$$$
>  <Chemical String>
O=C(CCCCc1ccc(C[C@H](NS(=O)(=O)c2cccc(Cl)c2)C(=O)O)s1)NC1=NCCCN1

>  <pIC50>
7.82

$$$$
>  <Chemical String>
O=C(CCCCc1ccc(C[C@H](NC(=O)OCc2ccccc2)C(=O)O)s1)NC1=NCCCN1

>  <pIC50>
8.05

$$$$
>  <Chemical String>
O=C(CCCCc1ccc(C[C@H](NS(=O)(=O)c2ccccc2)C(=O)O)s1)NC1=NCCCN1

>  <pIC50>
8.02

$$$$
>  <Chemical String>
O=C(CCCCCc1ccc(C[C@H](NC(=O)OCc2ccccc2)C(=O)O)s1)NC1=NCCCN1

>  <pIC50>
7.01

$$$$
>  <Chemical String>
CCCCS(=O)(=O)N[C@@H](Cc1ccc(CCCCC(=O)NC2=NCCCN2)s1)C(=O)O

>  <pIC50>
7.34

$$$$
>  <Chemical String>
O=C(CCCCc1ccc(C[C@H](NS(=O)(=O)c2ccc(C(F)(F)F)cc2)C(=O)O)s1)NC1=NCCCN1

>  <pIC50>
7.55

$$$$
>  <Chemical String>
O=C(CCCCc1ccc(C[C@H](NS(=O)(=O)c2cccc3ccccc23)C(=O)O)s1)NC1=NCCCN1

>  <pIC50>
7.64

$$$$
>  <Chemical String>
CC(C)(C)c1ccc(S(=O)(=O)N[C@@H](Cc2ccc(CCCCC(=O)NC3=NCCCN3)s2)C(=O)O)cc1

>  <pIC50>
7.02

$$$$
>  <Chemical String>
CCCS(=O)(=O)N[C@@H](Cc1ccc(CCCCC(=O)NC2=NCCCN2)s1)C(=O)O

>  <pIC50>
7.22

$$$$
>  <Chemical String>
O=C(CCCCc1ccc(C[C@H](NS(=O)(=O)c2ccc3ccccc3c2)C(=O)O)s1)NC1=NCCCN1

>  <pIC50>
7.82

$$$$
>  <Chemical String>
O=C(CCCCc1ccc(C[C@H](NS(=O)(=O)CC(F)(F)F)C(=O)O)s1)NC1=NCCCN1

>  <pIC50>
7.96

$$$$
>  <Chemical String>
O=C(CC/C=C/c1ccc(C[C@H](NC(=O)OCc2ccccc2)C(=O)O)s1)NC1=NCCCN1

>  <pIC50>
7.46

$$$$
